Collected log10 of CV25 values appear next to each entry.
system: HGPS fibroblast; details: human, 72 h
Where a SMILES comes first, the peptide text is derived from it. The star is where a group is joined. Cbz = O=C(OCc1ccccc1)*
reported_metric: log10 of CV25 (log10 of the value in µM)

INSERT INTO measurements (compound, measured_number) VALUES
  ('CC(C)C[C@@H](C=O)NC(=O)[C@H](CC(C)C)NC(=O)[C@H](CC(C)C)NC(=O)Cc1cccc(CC(=O)N[C@@H](CC(C)C)C(=O)N[C@@H](CC(C)C)C(=O)N[C@H](C=O)CC(C)C)c1', -0.23),
  ('CC(C)C[C@@H](C=O)NC(=O)[C@H](CC(C)C)NC(=O)[C@H](CC(C)C)NC(=O)c1cc(Cl)ccc1Cl', -1.20),
  ('CC(C)C[C@@H](/C=N/NC(N)=O)NC(=O)[C@H](CC(C)C)NC(=O)[C@H](CC(C)C)NC(=O)OCc1ccccc1', 0.24),
  ('CC(C)C[C@@H](C=O)NC(=O)[C@H](CC(C)C)NC(=O)[C@H](Cc1ccccc1)NC(=O)OCc1ccccc1 [Compound 4, Z-Phenylalanine-Leucine-Leucinal] (Cbz-Phe-Leu-Leu-aldehyde)', -0.40),
  ('CC(C)C[C@@H](C=O)NC(=O)[C@H](Cc1ccccc1)NC(=O)[C@H](CC(C)C)NC(=O)OCc1ccccc1 [Compound 6, Z-Leucine-Phenylalanine-Leucinal] (Cbz-Leu-Phe-Leu-aldehyde)', -0.85),
  ('CC(C)C[C@H](NC(=O)OCc1ccccc1)C(=O)N[C@@H](CC(C)C)C(=O)N[C@H](C(=O)N[C@H](C=O)Cc1ccc(O)cc1)C(C)C [Compound 13] (Cbz-LLVY-aldehyde)', -1.70),
  ('CC(=O)N[C@@H](CC(C)C)C(=O)N[C@@H](CC(C)C)C(=O)N[C@H](C=O)CC(C)C [Compound 3] (Ac-Leu-Leu-Leu-aldehyde)', 0.26),
  ('CC(C)C[C@@H](C=O)NC(=O)[C@H](CC(C)C)NC(=O)[C@H](CC(C)C)NC(=O)Cc1ccc(F)cc1F', -0.82),
  ('CC(C)C[C@@H](C=O)NC(=O)[C@H](CC(C)C)NC(=O)[C@H](CC(C)C)NC(=O)c1cnccn1', 0.74);

* * *

Collected CV75 values appear next to each entry.
test system: HGPS fibroblast; conditions: human, 72 h
Where a SMILES comes first, the peptide text is derived from it. The star is where a group is joined. Cbz = O=C(OCc1ccccc1)*
reported_metric: CV75 (µM)

INSERT INTO measurements (molecule, reported_metric, measured_number) VALUES
  ('CC(C)C[C@@H](C=O)NC(=O)[C@H](Cc1ccccc1)NC(=O)[C@H](CC(C)C)NC(=O)OCc1ccccc1 [Compound 6, Z-Leucine-Phenylalanine-Leucinal] (Cbz-Leu-Phe-Leu-aldehyde)', 'CV75', 0.060),
  ('CC(C)C[C@@H](C=O)NC(=O)[C@H](CC(C)C)NC(=O)[C@H](CC(C)C)NC(=O)c1cc(Cl)ccc1Cl', 'CV75', 0.001),
  ('CC(=O)N[C@@H](CC(C)C)C(=O)N[C@@H](CC(C)C)C(=O)N[C@H](C=O)CC(C)C [Compound 3] (Ac-Leu-Leu-Leu-aldehyde)', 'CV75', 0.720),
  ('CC(C)C[C@@H](C=O)NC(=O)[C@H](CC(C)C)NC(=O)[C@H](CC(C)C)NC(=O)Cc1ccc(F)cc1F', 'CV75', 0.073),
  ('CC(C)C[C@@H](C=O)NC(=O)[C@H](CC(C)C)NC(=O)[C@H](Cc1ccccc1)NC(=O)OCc1ccccc1 [Compound 4, Z-Phenylalanine-Leucine-Leucinal] (Cbz-Phe-Leu-Leu-aldehyde)', 'CV75', 0.133),
  ('CC(C)C[C@@H](C=O)NC(=O)[C@H](CC(C)C)NC(=O)[C@H](CC(C)C)NC(=O)c1cnccn1', 'CV75', 2.1),
  ('CC(C)C[C@@H](C=O)NC(=O)[C@H](CC(C)C)NC(=O)[C@H](CC(C)C)NC(=O)Cc1cccc(CC(=O)N[C@@H](CC(C)C)C(=O)N[C@@H](CC(C)C)C(=O)N[C@H](C=O)CC(C)C)c1', 'CV75', 0.155),
  ('CC(C)C[C@H](NC(=O)OCc1ccccc1)C(=O)N[C@@H](CC(C)C)C(=O)N[C@H](C(=O)N[C@H](C=O)Cc1ccc(O)cc1)C(C)C [Compound 13] (Cbz-LLVY-aldehyde)', 'CV75', 0.007),
  ('CC(C)C[C@@H](/C=N/NC(N)=O)NC(=O)[C@H](CC(C)C)NC(=O)[C@H](CC(C)C)NC(=O)OCc1ccccc1', 'CV75', 0.195);
